# systemTested: hCB-2 (Homo sapiens)
# Construct: purchased Perkin Elmer, Boston, Mass; host or cells: Sf9 insect cells (membranes)
# Sequence (P34972 whole entry): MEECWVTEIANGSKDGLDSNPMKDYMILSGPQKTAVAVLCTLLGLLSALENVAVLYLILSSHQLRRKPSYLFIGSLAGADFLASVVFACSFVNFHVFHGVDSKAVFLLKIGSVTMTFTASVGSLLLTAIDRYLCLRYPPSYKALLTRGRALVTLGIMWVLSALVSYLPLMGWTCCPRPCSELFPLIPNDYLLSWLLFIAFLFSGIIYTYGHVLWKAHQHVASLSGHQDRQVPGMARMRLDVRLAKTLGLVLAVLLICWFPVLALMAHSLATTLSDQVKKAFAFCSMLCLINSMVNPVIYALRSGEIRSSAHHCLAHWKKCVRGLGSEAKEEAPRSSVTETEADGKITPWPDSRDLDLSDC
# measurementDescription: hCB2-Sf9 agonist mode SPA GTP-γ-35S binding assay
# Format: biochemical
# assayConditions: human CB-2 Sf9 membranes, read-out: hCB-2 SPA GTPγS Sf9 Membrane Agonist Relative EC50
observable: pEC50
Schema: pEC50 number; meaning minus log10 of the concentration expressed in molar units.

[in] In one line, give reported pEC50 of the entry CC(C)(N[C@@H]1C[C@H](c2ccccc2)N(c2ccc(OC(F)(F)F)cc2)C1=O)c1ccnc(C(F)(F)F)n1 [Example 4] .
[out] 6.54

[in] In one line, give reported pEC50 of the entry CC(C)(N[C@@H]1C[C@H](c2cccc(F)c2)N(c2ccc(OC(F)(F)F)cc2)C1=O)c1ccnc(C(F)(F)F)n1 [Example 3] .
[out] 6.42
